Quick reference for GI50 among some compounds
Test system: Hs-578T
Test method notes: NCI tumour cell line growth inhibition, 48 h
Activity calls are given as the source filed them. No stated cut-off is given here; in the data, active = GI50 up to about 1.1 µM and inactive = higher.

Example compounds with recorded GI50:
[[record]]
compound = "CCOc1ccc2ccc3cccnc3c2n1"
recorded_result = "> 100 µM (inactive)"

[[record]]
compound = "Oc1c2c(nc3cc4c(cc13)OCO4)-c1ccccc1CCC2"
recorded_result = "15.9 µM (inactive)"

[[record]]
compound = "O=C1CC(c2ccc(Cl)cc2)Oc2ccccc21 (stereo not given)"
recorded_result = "15 µM (inactive)"


Look up GI50 for this compound: COc1cc(/C=N/NC(=O)c2c(Cl)c(Cl)c(Cl)c(Cl)c2-c2nc3cc(C(=O)c4ccccc4)ccc3[nH]2)ccc1O
60 µM (inactive)

Entry Cc1cc(NS(=O)(=O)c2ccc(Nc3c4ccccc4nc4ccc(C(=O)Nc5ccc(S(=O)(=O)N=C(N)N)cc5)cc34)cc2)no1 please
> 100 µM (inactive)

How about Cc1ccc(N/C(Sc2ccccc2)=C(/C(Cl)=C(Cl)Cl)[N+](=O)[O-])c(C)c1 ?
44.4 µM (inactive)

Ok, now Nc1nc(Cl)cc(/N=N\c2ccccc2)n1
35.9 µM (inactive)

Same read-out for CCOc1ccc(NC(=O)/C(=N\NC(C)(C)C)C2C(=O)Nc3ccccc3[S+]2[O-])cc1 (stereo not given) ?
> 100 µM (inactive)

Now this one: CC(=O)OCC1OC(NC(=S)CCSc2nc3ccccc3c(=O)n2-c2ccccc2)C(OC(C)=O)C(OC(C)=O)C1OC(C)=O (stereo not given)
24.8 µM (inactive)

Query NS(=O)(=O)c1ccc(CNC(=S)NC(=O)Nc2ccc(Cl)c(Cl)c2)cc1 next
17.1 µM (inactive)

All values here come from ChEMBL document CHEMBL1201862.
